- TARGET_OF_ASSAY: Atrial natriuretic peptide receptor 1 (Homo sapiens)
- EXPERIMENTAL_DETAILS: Natriuretic polypeptide receptor (hNpr1) antagonism - Pilot CMLD screen (AID 1347052);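 further: cGMP level read as GloSensor luciferase luminescence after agonist stimulation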
- MEASUREMENT_SETUP: HEK293 hNpr1 GloSensor cGMP luminescence, ANP-stimulated; series mostly up to 9.22 µM
Results filed as inconclusive are left out. The source made the active and inactive calls. The call rests on the fitted dose curve.
Hello, when you answer, please use one of the following outcomes: y = active, n = inactive

[ask] Record request — test call for COCCN1C(=O)N[C@@H](CCc2ccccc2)[C@@H](C(=O)OC)[C@H]1C
[reply] n

[ask] What do you have for N#CCCN(CC#Cc1ccccc1)OCc1ccccc1 ?
[reply] n

[ask] What do you have for CCN1C(=NCc2ccc(OC)cc2)NC(c2ccccc2)C(C(=O)OC)=C1C (stereo not drawn) ?
[reply] n

[ask] What do you have for C=C(C)C(=O)C=Cc1ccc(Br)cc1 ?
[reply] n

[ask] What do you have for C[C@@H]1CC[C@H]2C(=O)N(Cc3ccccc3)C[C@H](O)CN2[C@@H]1c1ccc(Br)cc1 ?
[reply] y

[ask] What do you have for CCN1C(=NCc2cc(OC)c(OC)c(OC)c2)NC(c2ccccc2)C(C(=O)OC)=C1C (stereo not drawn) ?
[reply] n

[ask] What do you have for CC1(OC(=O)C2CCCC2)C(=O)C=C2C=C(c3ccsc3)N(Cc3ccccc3)C=C2C1=O (stereo not drawn) ?
[reply] n

[ask] What do you have for COc1cccc([C@@H]2[C@H](C)C[C@H]3CC(=O)N4[C@H](CC(=O)N32)C[C@@H](C)[C@@H]4c2cccc(OC)c2)c1 ?
[reply] n

[ask] What do you have for CCC=CC[C@@]1(C(=O)OC)C=C[C@@H](C)[C@H](c2ccccc2Br)N1C(=O)C(F)(F)F ?
[reply] n

[ask] What do you have for COC(=O)C1=C(C(=O)OC)[C@@H]2Nc3ccccc3[C@@]23C[C@@H](C(=O)OC)N(C(=O)NC(C)(C)C)C3=N1 ?
[reply] n

[ask] What do you have for COc1ccc(-c2ccc3c(n2)CCCN3CC(O)CN2CCCc3nc(C)c(C)cc32)cc1 (stereo not drawn) ?
[reply] n

[ask] What do you have for C=CCCCC=C(C)[C@H](OCc1ccc(OC)cc1)[C@H](CCC=C(C)C(N)=O)OC ?
[reply] n

[ask] What do you have for COC(=O)CCCC1=CC2=C(c3ccccc3)C(=O)C(C)(OC(=O)C3CCCC3)C(=O)C2=CN1Cc1ccc2c(c1)OCO2 (stereo not drawn) ?
[reply] n

[ask] What do you have for CC1=C[C@H]2c3ccccc3C[C@H]2CO[C@]12C(=O)N(Cc1ccc(Br)cc1)c1ccccc12 ?
[reply] n

[ask] What do you have for CCCCc1cc2c(cn1)=C(OC(=O)c1cccs1)C(C)(OC(=O)CC)C(=O)C=2 (stereo not drawn) ?
[reply] n

[ask] What do you have for Cc1cc2c(nc1C)CCCCN2C[C@H](C)ON=C1[C@H]2CCn3c(=O)n(-c4ccccc4)c(=O)n3[C@@H]2[C@H](O)[C@@H]2O[C@H]12 ?
[reply] n

[ask] What do you have for COC(=O)CC=C[C@@H](C)[C@H](NC(=O)OCC(Cl)(Cl)Cl)c1cccc(OC)c1 ?
[reply] n

[ask] What do you have for CCN1C(=O)NC(CCc2ccccc2)C(C(=O)OC)=C1C (stereo not drawn) ?
[reply] n

[ask] What do you have for C[C@@H]1C=CCC(=O)N2[C@H](CC(=O)N[C@@H]1c1ccccc1)C[C@@H](C)[C@@H]2c1ccccc1 ?
[reply] n

[ask] What do you have for CC(=O)OC[C@H]1O[C@H](c2ccc(C(C)=O)cc2)C=C[C@H]1OC(C)=O ?
[reply] n

[ask] What do you have for C[C@@H]1CC[C@H]2C(=O)N(Cc3cccc([N+](=O)[O-])c3)C[C@@H](O)CN2[C@@H]1c1ccc(Br)cc1 ?
[reply] n

[ask] What do you have for COc1ccc2c(c1)CO[C@H]([C@H](O)CO)[C@H]2C=Cc1ccccc1 ?
[reply] n

[ask] What do you have for C#CCCOC(=O)N1C2=NC(C(=O)OC)=C(C(=O)OC)[C@@H]3N(CC=C)c4ccccc4[C@]23C[C@H]1C(=O)OC ?
[reply] n

[ask] What do you have for CCOC(=O)CN1C(=O)[C@]2(O[C@H](COc3ccccc3)CC3=C2CCC3)c2ccccc21 ?
[reply] n

[ask] What do you have for CC1(OC(=O)c2cnc3ccccc3n2)C(=O)C=C2C=C(c3ccc(C#N)cc3)OC=C2C1=O (stereo not drawn) ?
[reply] n

[ask] What do you have for COc1cccc([C@H]2Oc3ccc(OC)cc3C(=NO[C@@H](C)c3cn([C@H](CO)Cc4ccccc4)nn3)[C@H]2O)c1 ?
[reply] n

[ask] What do you have for CCN1C(=O)N[C@@H](c2cccc(C(F)(F)F)c2)[C@H](C(C)=O)[C@H]1C ?
[reply] n

[ask] What do you have for CCOC(=O)C(c1ccc(OC)c(OC)c1)C1c2ccccc2C=C(C)N1C(=O)OC (stereo not drawn) ?
[reply] n

[ask] What do you have for C[C@@H]1C=CCCO[C@]12C(=O)N(Cc1ccc(Br)cc1)c1ccccc12 ?
[reply] n

[ask] What do you have for COC(=O)C1=C(C)N(Cc2ccccc2)C(=NCc2ccc(OC)cc2)NC1c1cccc(F)c1 (stereo not drawn) ?
[reply] n

[ask] What do you have for COC(=O)N[C@H](CC(C)=O)c1cccc(F)c1 ?
[reply] n

[ask] What do you have for COc1cc(C(CC2=C(c3ccccc3)Cc3ccccc32)NC(=O)C(F)(F)F)cc(OC)c1OC (stereo not drawn) ?
[reply] n

[ask] What do you have for COC(=O)[C@H](COC(C)(C)C)NC(=O)O[C@@H]1C(=O)c2cc(OC)ccc2O[C@H]1c1ccc(OC)c(Br)c1 ?
[reply] n
